Target: muscarinic receptors (heart) (Rattus norvegicus, UniProt P10980)
Construct: The whole heart is cut up with scissors; All the organs are then homogenised in a Potter apparatus
Sequence (P10980 1-466): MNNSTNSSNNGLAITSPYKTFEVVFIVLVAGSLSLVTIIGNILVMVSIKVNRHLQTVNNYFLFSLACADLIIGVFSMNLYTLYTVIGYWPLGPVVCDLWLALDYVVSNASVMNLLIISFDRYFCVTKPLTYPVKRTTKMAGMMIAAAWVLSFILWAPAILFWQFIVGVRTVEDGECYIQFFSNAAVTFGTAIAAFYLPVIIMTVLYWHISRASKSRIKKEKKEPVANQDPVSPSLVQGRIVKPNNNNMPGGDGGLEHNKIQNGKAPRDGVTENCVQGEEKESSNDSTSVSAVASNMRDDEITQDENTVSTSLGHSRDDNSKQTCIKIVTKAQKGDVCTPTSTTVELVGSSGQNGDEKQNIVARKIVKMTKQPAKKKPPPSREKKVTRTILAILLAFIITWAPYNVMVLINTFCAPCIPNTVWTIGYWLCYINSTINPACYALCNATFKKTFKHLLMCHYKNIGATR
Experiment: Receptor binding tests: inhibition of specific 3H-N-methylscopolamine binding, whole heart
Details: whole heart homogenate 1:250; 0.3 nM 3H-NMS; 30° C., 45 min, pH 7.4
pIC50: −log10 of the molar value.
Outcome Measure: pIC50

Reference set, count: 2
Molecule	pIC50
CCN(CC)C[C@@H]1CCCN1CC(=O)N1c2ccccc2NC(=O)c2ccccc21	7.05
CN(CC1CCCN(CC(=O)N2c3ccccc3NC(=O)c3ccccc32)C1)C1CCCCC1 (stereo not shown)	8.55

(1) CN(C)CCC1CCCCN1CC(=O)N1c2ccccc2C(=O)Nc2cccnc21 (stereo not shown)
(2) CN1CCCC1C1CCCN(CC(=O)N2c3ccccc3NC(=O)c3ccccc32)C1 (stereo not shown)
Field: entry with larger pIC50 (options 1 / 2 ). The response must carry the label of the picked entry. 2
(2: 7.77, 1: 6.77)
